- measured-target: protein kinase C (PKC)
- assay-details: Inhibition of protein kinase C (PKC) (isolated enzyme)
- condition-label: partially purified PKC from swine brain; histone H1 substrate; 32° C., 2 minutes; read-out: IC50 (Test Procedure A)
property-label: IC50
Numeric answer plus unit only.

In the examples that follow, each entry is paired with its recorded IC50.
compound_structure_string=O=C(N[C@@H]1CNCCC[C@H]1OC(=O)c1ccc(O)c(O)c1)c1ccc(O)cc1 measured_target="protein kinase C (PKC)" value="8.8 µM"
compound_structure_string=COc1cc2c(O)cccc2cc1C(=O)O[C@@H]1CCCNC[C@H]1NC(=O)c1ccc(O)cc1 measured_target="protein kinase C (PKC)" value="24 µM"
compound_structure_string=O=C(N[C@@H]1CNCCC[C@H]1OC(=O)c1ccc(O)cc1)c1ccc(O)cc1 measured_target="protein kinase C (PKC)" value="10 µM"
compound_structure_string=O=C(N[C@@H]1CNCCC[C@H]1OC(=O)c1ccc(O)cc1)c1ccc(OC(=O)c2c(O)cccc2O)cc1 measured_target="protein kinase C (PKC)" value="30 µM"

Proceed to the following item.
What the record says about CN(C(=O)c1ccccc1O)c1ccc(C(=O)O[C@@H]2CCCNC[C@H]2NC(=O)c2ccc(O)cc2)cc1 : IC50 is 26 µM

###

- Test system: Mouse Hair Follicle
- assay-details: Cell proliferation in cultured mouse hair follicles (3H-thymidine incorporation, DNA synthesis)
- Assay type: cell-based, mouse (CD-1)
- condition-label: concentration giving 50% of the maximal stimulation of DNA synthesis
Form field: pEC50 (one value per entry).
pEC50 here: minus log base 10 of the concentration, concentration in moles per litre.

compound_structure_string=COc1cc2c(O)cccc2cc1C(=O)O[C@@H]1CCCNC[C@H]1NC(=O)c1ccc(O)cc1 value=4.52
compound_structure_string=O=C(N[C@@H]1CNCCC[C@H]1OC(=O)c1ccc(O)cc1)c1ccc(OC(=O)c2c(O)cccc2O)cc1 value=5.00
compound_structure_string=O=C(N[C@@H]1CNCCC[C@H]1OC(=O)c1ccc(O)cc1)c1ccc(O)cc1 value=5.30

Proceed to the following item.
// compound O=C(N[C@@H]1CNCCC[C@H]1OC(=O)c1ccc(S(=O)(=O)Oc2ccccc2O)cc1)c1ccc(O)cc1 , assay Mouse Hair Follicle, pEC50 value: 4.40

###

Form field: IC50 (one value per entry).
- measured-target: cAMP-dependent protein kinase (PKA)
- assay-details: Inhibition of cAMP-dependent protein kinase (PKA)
- condition-label: partially purified PKA from swine brain; histone H1 substrate; cyclic AMP activation; 32° C., 2 minutes; read-out: IC50 (Test Procedure B)
Give a bare numeral; the unit µM is implied.

What the record says about O=C(N[C@@H]1CNCCC[C@H]1OC(=O)c1ccc(O)c(O)c1)c1ccc(O)cc1 : IC50 is 0.07

###

- measured-target: cAMP-dependent protein kinase (PKA)
- assay-details: Inhibition of cAMP-dependent protein kinase (PKA)
- condition-label: partially purified PKA from swine brain; histone H1 substrate; cyclic AMP activation; 32° C., 2 minutes; read-out: IC50 (Test Procedure B)
Form field: IC50 (one value per entry).
Numeric answer plus unit only.

In the examples that follow, each entry is paired with its recorded IC50.
molecule="O=C(N[C@@H]1CNCCC[C@H]1OC(=O)c1ccc(O)cc1)c1ccc(O)cc1 [III/1]" property_label=IC50 value="26 nM"
molecule="CN(C(=O)c1ccccc1O)c1ccc(C(=O)O[C@@H]2CCCNC[C@H]2NC(=O)c2ccc(O)cc2)cc1 [I/25]" property_label=IC50 value="1900 nM"
molecule="O=C(N[C@@H]1CNCCC[C@H]1OC(=O)c1ccc(O)cc1)c1ccc(OC(=O)c2c(O)cccc2O)cc1 [II/1]" property_label=IC50 value="38 nM"

Proceed to the following item.
What the record says about COc1cc2c(O)cccc2cc1C(=O)O[C@@H]1CCCNC[C@H]1NC(=O)c1ccc(O)cc1 [I/19] : IC50 is 41 nM
